Listed here are variants together with their documented protein stability index.
B1: GAGE1 (parent)
chain: RPRRYVQPPEMIGPMRPEQFSDEV

# Variants of: B1
# experimental-details: protein stability index of a GFP-peptide fusion (GPS, HEK-293T) (PSI 1-6); higher = more stable;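 also: lentivirally expressed fusions sorted by FACS into six bins by GFP to DsRed ratio, PSI derived from sequencing read proportions per bin multiplied by bin number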
# condition-notes: c terminus: a fixed tail appended
Simply state the number, no unit and no words.

Sample answers from the record:
query-sequence | protein stability index
RPRRHVQPPEMIGPMRPEQFSDEV [Y5H] | 3.81
RPWRYVQPPEMIGPMRPEQFSDEV [R3W] | 2.6
KPRRYVQPPEMIGPMRPEQFSDEV [R1K] | 3.96
RPRWYVQPPEMIGPMRPEQFSDEV [R4W] | 3.09
RPRRYVQPPEMIGPMRPEQFSQEV [D22Q] | 3.11

Form field: reported protein stability index of RPRRYVQPPEMIGPMRPEQFSAEV [D22A] 3.87

GET /values?readout=protein stability index&item= RPRRYVLPPEMIGPMRPEQFSDEV [Q7L] 3.85

GET /values?readout=protein stability index&item= RPRRYVQPPEMIGQMRPEQFSDEV [P14Q] 4.23

Which protein stability index value is on record for RYRRYVQPPEMIGPMRPEQFSDEV [P2Y] ? 2.21

State the recorded protein stability index for this entry: RPRRYVQPPEMIGPMCPEQFSDEV [R16C] 3.84

Could you share which protein stability index value was measured for RPRRYVQPPEMIGPLRPEQFSDEV [M15L] ? 3.95

Requested field: protein stability index. Item: RPNRYVQPPEMIGPMRPEQFSDEV [R3N] 4.07
